test system: Enterococcus faecium NCTC 11047; test: Peptidase activity detection on Columbia agar containing substrate; assay type: cell-based; design: key: − = no fluorescence detected; e = trace of fluorescence; +/− = weak fluorescence; + = medium fluorescence; ++ = strong fluorescence; NG = No Growth; settings: Enterococcus faecium NCTC 11047 (Table 2); substrate 100 mg/l, 24 hours at 37° C., UV 360-365 nm

| MOLECULE | fluorescence intensity |
| --- | --- |
| COc1cc(NC(=O)CCN)c(-c2nc3ccccc3o2)cc1OC [Substrate 11] | +/− |
| C[C@H](N)C(=O)Nc1ccccc1-c1nc2ccccc2s1 [Substrate 17] | NG |
| C[C@H](N)C(=O)Nc1ccc(Cl)cc1-c1nc2ccccc2s1 [Substrate 19] | − |
| NCCC(=O)Nc1ccccc1-c1nc2ccccc2s1 [Substrate 18] | NG |
| C[C@H](N)C(=O)Nc1ccccc1-c1nc2ccccc2o1 [Substrate 1] | +/− |
| C[C@H](N)C(=O)Nc1ccccc1-c1nc2cc(Cl)ccc2o1 [Substrate 4] | − |
| NCCC(=O)Nc1ccccc1-c1nc2ccccc2o1 [Substrate 2] | +/− |
| NCC(=O)Nc1ccccc1-c1nc2ccccc2o1 [Substrate 3] | NG |

---

test system: Listeria monocytogenes NCTC 11994; test: Peptidase activity detection on Columbia agar containing substrate; format: cell-based; parameters: key: − = no fluorescence detected; e = trace of fluorescence; +/− = weak fluorescence; + = medium fluorescence; ++ = strong fluorescence; NG = No Growth; settings: substrate 100 mg/l, 24 hours at 37° C., UV 360-365 nm

| MOLECULE | fluorescence intensity |
| --- | --- |
| C[C@H](N)C(=O)Nc1ccccc1-c1nc2ccccc2s1 [Substrate 17] | NG |
| C[C@H](N)C(=O)Nc1ccccc1-c1nc2cc(Cl)ccc2o1 [Substrate 4] | − |
| C[C@H](N)C(=O)Nc1ccccc1-c1nc2ccccc2o1 [Substrate 1] | +/− |
| NCC(=O)Nc1ccccc1-c1nc2ccccc2o1 [Substrate 3] | +/− |
| C[C@H](N)C(=O)Nc1ccccc1-c1nc2ccccc2n1CCc1ccccc1 [Substrate 14] | − |
| C[C@H](N)C(=O)Nc1cc2c(cc1-c1nc3ccccc3n1CCc1ccccc1)OCO2 [Substrate 16] | − |
| COc1cc(NC(=O)CCN)c(-c2nc3ccccc3o2)cc1OC [Substrate 11] | +/− |
| NCCC(=O)Nc1ccccc1-c1nc2ccccc2o1 [Substrate 2] | ε |
| NCCC(=O)Nc1ccccc1-c1nc2ccccc2s1 [Substrate 18] | NG |
| C[C@H](N)C(=O)Nc1ccc(Cl)cc1-c1nc2ccccc2s1 [Substrate 19] | − |

---

system: Enterococcus faecalis NCTC 775; experiment: Peptidase activity detection on Columbia agar containing substrate; type: cell-based; design: key: − = no fluorescence detected; e = trace of fluorescence; +/− = weak fluorescence; + = medium fluorescence; ++ = strong fluorescence; NG = No Growth; details: substrate 100 mg/l, 24 hours at 37° C., UV 360-365 nm
RESULT TYPE: fluorescence intensity

| MOLECULE | MEASUREMENT |
| --- | --- |
| COc1cc(NC(=O)CCN)c(-c2nc3ccccc3o2)cc1OC [Substrate 11] | +/− |
| C[C@H](N)C(=O)Nc1ccccc1-c1nc2cc(Cl)ccc2o1 [Substrate 4] | +/− |
| NCCC(=O)Nc1ccccc1-c1nc2ccccc2o1 [Substrate 2] | +/− |
| C[C@H](N)C(=O)Nc1ccccc1-c1nc2ccccc2s1 [Substrate 17] | NG |
| NCCC(=O)Nc1ccccc1-c1nc2ccccc2s1 [Substrate 18] | NG |
| C[C@H](N)C(=O)Nc1ccccc1-c1nc2ccccc2o1 [Substrate 1] | +/− |
| NCC(=O)Nc1ccccc1-c1nc2ccccc2o1 [Substrate 3] | − |
| C[C@H](N)C(=O)Nc1ccc(Cl)cc1-c1nc2ccccc2s1 [Substrate 19] | − |
| C[C@H](N)C(=O)Nc1cc2c(cc1-c1nc3ccccc3n1CCc1ccccc1)OCO2 [Substrate 16] | − |
| C[C@H](N)C(=O)Nc1ccccc1-c1nc2ccccc2n1CCc1ccccc1 [Substrate 14] | − |
